read-out: Interleukin-8 (IL8), CXCL8 (gene 3576); assay: BSK_LPS_IL8: BioMAP Diversity Plus: LPS Assay for Interleukin-8 (IL8) Biomarker Activity (AID 2283078); details: primary human HUVEC with PBMC; actives raise or lower the signal
The source made the active and inactive calls. The calls were made as follows: active = hit-call score of the fitted dose curve at least 0.9, where 1 is the maximum; inactive = score below 0.9.
Please state which outcome applies, choosing from active, inactive

Could you kindly confirm the outcome this assay logged for `CC(C)(c1cc(Cl)c(O)c(Cl)c1)c1cc(Cl)c(O)c(Cl)c1` ? active

Same for CC(C)(C)C(O)C(Oc1ccc(-c2ccccc2)cc1)n1cncn1 (configuration not stated) inactive

Same for `Oc1cc(Cl)ccc1Cl` inactive

Same for `CCCC[N+](CCCC)(CCCC)CCCC` inactive

Same for `Nc1ccc(-c2ccc(N)c(N)c2)cc1N` inactive

Same for `O=[N+]([O-])c1ccc(Cl)cc1` inactive

Same for `O=[N+]([O-])C=Cc1ccccc1` active

----------
Target: Estrogen receptor (Homo sapiens)
Test: ATG_ERa_TRANS: Attagene TRANS-FACTORIAL HepG2 Assay for human Estrogen Receptor alpha (ERa) (AID 2282970)
Conditions: HepG2 Attagene TRANS ERa GAL4 reporter, mRNA
Procedure: ATG_TRANS is a cell-based, multiplexed-readout assay that uses HepG2, a human liver cell line, with measurements taken at 24 hours after chemical dosing in a 24-well plate.ATG_ERa_TRANS is one of 30 assay component(s) measured or calculated from the ATG_TRANS assay. […] This assay endpoint, ATG_ERa_TRANS, was analyzed in the positive analysis fitting direction relative to DMSO as the negative control and baseline of activity. […]
Inconclusive results are not listed. Activity calls are given as the source filed them. Rule for the calls: active = hit-call score of the fitted dose curve at least 0.9, where 1 is the maximum; inconclusive = response in the unintended direction; inactive = score below 0.9.
Please state which outcome applies, choosing from active, inactive

Answered examples (3):
compound: O=[N+]([O-])c1cc(C(F)(F)F)c(Cl)c([N+](=O)[O-])c1Cl
classLabel: active

compound: O=c1c2ccccc2c(=O)c2c1cc(Cl)c1[nH]c3c([nH]c12)c(Cl)cc1c(=O)c2ccccc2c(=O)c13
classLabel: inactive

compound: CNC(=O)Oc1cc(C)c(SC)c(C)c1
classLabel: active

Could you kindly confirm the outcome this assay logged for `O=C(O)c1cc[c]([Hg][Cl])cc1` ? inactive

Same for O=CNC(N1CCN(C(NC=O)C(Cl)(Cl)Cl)CC1)C(Cl)(Cl)Cl (stereo not given) inactive

Same for `Cc1cc(C)c(C2=C(OC(=O)CC(C)(C)C)C3(CCCC3)OC2=O)c(C)c1` inactive

Same for `c1ccc(Nc2ccc3ccccc3c2)cc1` active

Same for `CCN(CC)C(=S)S` inactive

----------
experiment: TOX21_p53_BLA_p3_viability: Viability Assessment in the Tox21 HCT-116 p53 Agonism Beta-lactamase Assay, Phase 3 (AID 2283593);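 also: cells exposed to compound for 16 h before reading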
Records with an inconclusive call do not appear. The source made the active and inactive calls. The calls were made as follows: active = hit-call score of the fitted dose curve at least 0.9, where 1 is the maximum; inconclusive = response in the unintended direction; inactive = score below 0.9.
Please state which outcome applies, choosing from 1.0 = active, 0.0 = inactive

Answered examples (4):
molecule: [O]=[Cr](=[O])([OH])[O][Cr](=[O])(=[O])[OH]
classLabel: 1.0
//
molecule: [Cl-].[Cl-].[Sn+2]
classLabel: 0.0
//
molecule: O=C1c2ccccc2C(=O)C1C(=O)C(c1ccccc1)c1ccccc1
classLabel: 0.0
//
molecule: CCOC(=O)CBr
classLabel: 0.0

Could you kindly confirm the outcome this assay logged for `CC(C)N(C(=O)SCC(Cl)=CCl)C(C)C` ? 0.0

Same for `O=[N+]([O-])c1ccccc1CCl` 0.0

Same for `CCCN` 0.0

Data origin, for the record: PubChem BioAssay (EPA / NIEHS)
